Measured values drawn from patent US20080039437A1 for this set.

Target: P2Y12 receptor (Homo sapiens)
Sequence (Q9H244 whole entry): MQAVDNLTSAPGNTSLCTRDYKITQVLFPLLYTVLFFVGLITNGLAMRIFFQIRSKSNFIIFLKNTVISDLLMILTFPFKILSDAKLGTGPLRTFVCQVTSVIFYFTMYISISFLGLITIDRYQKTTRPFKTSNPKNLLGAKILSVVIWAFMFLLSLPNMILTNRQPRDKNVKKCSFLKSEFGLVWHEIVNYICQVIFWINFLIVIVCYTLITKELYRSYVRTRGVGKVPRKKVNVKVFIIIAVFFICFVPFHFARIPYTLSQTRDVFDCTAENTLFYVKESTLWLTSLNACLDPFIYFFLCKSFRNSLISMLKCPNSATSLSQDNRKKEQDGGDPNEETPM
Assay: Functional inhibition of 2-Me-S-ADP induced P2Y12 signalling (35S-GTPγS, cell membranes)
Details: membranes from P2Y12 transfected CHO-cells, EC80 of agonist 2-methyl-thio-adenosine diphosphate, 30° C., 45 min
RESULT_TYPE: pIC50
Answers are plain numbers, as −log10 of the molar value.

Return reported pIC50 values for all items listed beneath this line.
1. CCCCS(=O)(=O)NC(=O)C1CCN(c2nc(C(F)F)c(C(=O)OCC)cc2C#N)CC1 [Example 41]
2. CCOC(=O)c1cc(C#N)c(N2CC(C(=O)NS(=O)(=O)CC3CCC(C)CC3)C2)nc1CF (centres unmarked) [Example 74]

1. 6.31
2. 6.57
